test: Membrane permeability by PAMPA in presence of 20% 1-propanol; type: ADME; details: read-out: permeability
Readout: Papp (×10⁻⁶ cm/s)

a. NC(=O)N1c2ccccc2C=Cc2ccccc21 [CARBAMAZEPINE]
b. CC(C)NCC(O)COc1cccc2ccccc12 (stereo not drawn) [PROPRANOLOL]
c. Cn1c(=O)c2c(ncn2C)n(C)c1=O [CAFFEINE]
Q) In ascending order of recorded Papp, list the compounds from the set above. Sort the labels as requested; that list is your answer.
A) c, b, a
(c: 1.8 ×10⁻⁶ cm/s, b: 8.4 ×10⁻⁶ cm/s, a: 12.8 ×10⁻⁶ cm/s)

###

assay: Membrane permeability assessed as passive transport after 4 hrs by PAMPA
Where a SMILES comes first, the peptide text is derived from it. [ ]: non-standard residue; d: D form. NMeF = CN[C@@H](Cc1ccccc1)C(=O)O; 3Pal = N[C@@H](Cc1cccnc1)C(=O)O
Readout: permeability (%)

a. CC(=O)N[C@@H](Cc1cccnc1)C(=O)N(C)[C@@H](Cc1ccccc1)C(=O)N(C)[C@@H](Cc1ccccc1)C(=O)N(C)[C@@H](Cc1ccccc1)C(N)=O (Ac-[3Pal][NMeF][NMeF][NMeF]-NH2)
b. Cn1c(=O)c2c(ncn2C)n(C)c1=O
Q) Smaller permeability value, a vs b ? Please indicate the selected item by its label.
A) a

###

Each entry below carries its reported Papp.
assay: Membrane permeability by PAMPA
Where a SMILES comes first, the peptide text is derived from it. [ ]: non-standard residue; d: D form. 2Nal = N[C@@H](Cc1ccc2ccccc2c1)C(=O)O; Dopa = N[C@@H](Cc1ccc(O)c(O)c1)C(=O)O; NMeF = CN[C@@H](Cc1ccccc1)C(=O)O
Just the number please, in ×10⁻⁶ cm/s, no unit attached.

CN(C(=O)[C@@H](N)Cc1ccc(O)c(O)c1)[C@@H](Cc1ccccc1)C(=O)N(C)[C@@H](Cc1ccccc1)C(=O)N(C)[C@@H](Cc1ccccc1)C(=O)N(C)[C@@H](Cc1ccccc1)C(N)=O (H-[Dopa][NMeF][NMeF][NMeF][NMeF]-NH2); 1.1

Proceed to the following item.
Q) Dear colleague, I am looking for the recorded Papp of the following molecule: CN(C(=O)[C@H](Cc1ccc2ccccc2c1)NC(=O)[C@@H](N)Cc1ccc(O)c(O)c1)[C@@H](Cc1ccccc1)C(=O)N(C)[C@@H](Cc1ccccc1)C(=O)N(C)[C@@H](Cc1ccccc1)C(N)=O (H-[Dopa][2Nal][NMeF][NMeF][NMeF]-NH2)
A) 0.3

###

assay: Membrane permeability assessed as passive transport after 4 hrs by PAMPA in presence of 20% 1-propanol; type: ADME
Readout: permeability (%)

NCCc1ccc(O)c(O)c1; 0
CC(C)NCC(O)COc1cccc2ccccc12 (stereo not given); 14.9

1. NC(=O)N1c2ccccc2C=Cc2ccccc21 [CARBAMAZEPINE]
2. N[C@@H](Cc1ccc(O)c(O)c1)C(=O)O
3. Cn1c(=O)c2c(ncn2C)n(C)c1=O
Q) Descending sort on permeability required. Sort the labels as requested; that list is your answer.
A) 1, 3, 2

###

assay: Stability in human serum after 12 hrs
Readout: remaining at 12 h (%)
Just the number please, in %, no unit attached.

Q) Dear colleague, I am looking for the recorded remaining at 12 h of the following molecule: CC(=O)N(C)[C@@H](Cc1ccccc1)C(=O)N(C)[C@@H](Cc1ccccc1)C(=O)N(C)[C@@H](Cc1ccccc1)C(=O)N(C)[C@@H](Cc1ccccc1)C(N)=O (stereo in doubt; form 2)
A) 91
